Biological target: T1, Sla1-2, P32790
T1 sequence (P32790 60-140, looked up): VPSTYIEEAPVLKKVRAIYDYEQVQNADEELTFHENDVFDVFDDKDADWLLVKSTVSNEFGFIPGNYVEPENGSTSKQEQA
Assay: SPOT array
Settings: median of control spots 712
measurementKind: SPOT intensity

Record excerpt, results attached:
GKKVRPLLVLLLSRA: 0
MFLISPPASPPPEFD: 0

[1] RSRRSSFAYPQQVAI
[2] PLRRTVMSLPGNHDI
(Q) Would you kindly point out which of 1 and 2 has the smaller SPOT intensity figure? I would appreciate it if you answered with the label of your choice.
(A) 1
(1: 1, 2: 3)

[A] DLFKPLPEPPTELGR
[B] VYTRTAFQIPGDDKI
[C] NMLKKKPLKKPLKRF
[D] ISNFVPPNLPMRRFK
[E] AGKRRLPLVRFKASD
(Q) With regard to SPOT intensity, arrange the entries in ascending order, please. Lab note: record answer as labels in requested order.
(A) A, B, C, E, D

[a] APPPPPRRATPEKKP
[b] MKRSRPSRSIPYTTP
(Q) Would you kindly point out which of a and b has the smaller SPOT intensity figure? I would appreciate it if you answered with the label of your choice.
(A) a
(a: 0, b: 6)

[1] KNRKNLPTIPIRLSG
[2] YSRKKLPVVLSKMTL
[3] LPMNIQPDLPPRKIM
(Q) Parameters: sort_field (SPOT intensity), sort_dir (desc). Lab note: record answer as labels in requested order.
(A) 3, 2, 1
(3: 6, 2: 4, 1: 0)
